The origin of these recorded values is patent US20070015823A1.

System: Cryptococcus neoformans
Assay: Broth microdilution antifungal susceptibility, NCCLS M38-A
Conditions: strain 97-14; 50% growth inhibition; range = minimum and maximum of multiple assays
Provide the recorded MIC C. neoformans 97-14 for the entries that follow.
Field format: number, assumed µg/mL, no unit text.

QUERY: Entry under review: CC[C@H]1O[C@@H](/C(C)=C/[C@H](C)/C=C/[C@H]2[C@@H](C)[C@@H]2/C=C/[C@@H]2O[C@H](CC(=O)O)CC(=O)[C@H]2O)CC=C1C [5-keto ambruticin S, (6R)-5-Oxo-6-hydroxypolyangioic acid, reference compound] . Reported MIC C. neoformans 97-14?
RESULT: 0.5

QUERY: Entry under review: CC[C@H]1O[C@@H](/C(C)=C/[C@H](C)/C=C/[C@H]2[C@@H](C)[C@@H]2/C=C/[C@@H]2O[C@H](CC(=O)O)C[C@H](NC3CCC3)[C@H]2O)CC=C1C [I-jj] . Reported MIC C. neoformans 97-14?
RESULT: 0.125

QUERY: Entry under review: CC[C@H]1O[C@@H](/C(C)=C/[C@H](C)/C=C/[C@H]2[C@@H](C)[C@@H]2/C=C/[C@@H]2O[C@H](CC(=O)O)C[C@H](N(C)C3CCCC3)[C@H]2O)CC=C1C [I-c] . Reported MIC C. neoformans 97-14?
RESULT: 1

QUERY: Entry under review: CCCCN(C)[C@H]1C[C@@H](CC(=O)O)O[C@@H](/C=C/[C@H]2[C@H](C)[C@@H]2/C=C/[C@@H](C)/C=C(\C)[C@H]2CC=C(C)[C@@H](CC)O2)[C@@H]1O [I-u] . Reported MIC C. neoformans 97-14?
RESULT: 1

QUERY: Entry under review: CCN[C@H]1C[C@@H](CC(=O)O)O[C@@H](/C=C/[C@H]2[C@H](C)[C@@H]2/C=C/[C@@H](C)/C=C(\C)[C@H]2CC=C(C)[C@@H](CC)O2)[C@@H]1O [I-mm] . Reported MIC C. neoformans 97-14?
RESULT: 0.125

QUERY: Entry under review: CC[C@H]1O[C@@H](/C(C)=C/[C@H](C)/C=C/[C@H]2[C@@H](C)[C@@H]2/C=C/[C@@H]2O[C@H](CC(=O)O)C[C@H](NC(C)C)[C@H]2O)CC=C1C [I-kk] . Reported MIC C. neoformans 97-14?
RESULT: 0.25

QUERY: Entry under review: CCCN(C)[C@H]1C[C@@H](CC(=O)O)O[C@@H](/C=C/[C@H]2[C@H](C)[C@@H]2/C=C/[C@@H](C)/C=C(\C)[C@H]2CC=C(C)[C@@H](CC)O2)[C@@H]1O [I-t] . Reported MIC C. neoformans 97-14?
RESULT: 0.5

QUERY: Entry under review: CC[C@H]1O[C@@H](/C(C)=C/[C@H](C)/C=C/[C@H]2[C@@H](C)[C@@H]2/C=C/[C@@H]2O[C@H](CC(=O)O)C[C@H](N(C)CC)[C@H]2O)CC=C1C [I-a] . Reported MIC C. neoformans 97-14?
RESULT: 1
